Origin of the recorded values: ChEMBL document CHEMBL4699543

Assay: Tmax in mouse at 0.3 mg/kg, po
Type: ADME, organism-based
Details: in vivo
Readings of Tmax for the listed compounds
Number first, unit second: that is the form wanted.

Examples from the recorded data:
compound: O=C(Nc1ccc(OC(F)(F)F)c(F)c1)NC1CCN(C(=O)C2CCOCC2)CC1
Tmax: 6.5 h

compound: CC[C@H](C)C(=O)N1CCC(NC(=O)Nc2ccc(OC(F)(F)F)c(F)c2)CC1
Tmax: 5.2 h

compound: CCC(=O)N1CCC(NC(=O)Nc2ccc(OC(F)(F)F)c(F)c2)CC1
Tmax: 6.7 h

compound: O=C(Nc1ccc(OC(F)(F)F)cc1)NC1CCN(C(=O)C2CCOCC2)CC1
Tmax: 4.2 h

compound: O=C(Nc1ccc(OC(F)(F)F)cc1)NC1CCN(C(=O)C2CCCOC2)CC1 (racemic)
Tmax: 6.5 h

compound: O=C(Nc1ccc(OC(F)(F)F)c(F)c1)NC1CCN(C(=O)C2CCCOC2)CC1 (configuration not stated)
Tmax: 2.1 h

# input for lookup
# query: Tmax of entry CC(C)C(=O)N1CCC(NC(=O)Nc2ccc(OC(F)(F)F)c(F)c2)CC1
10 h

----------
Assay: Half life in mouse at 0.3 mg/kg, po
Type: ADME, organism-based
Conditions: in vivo
half-life strictly less than 6 h = yes (1). Otherwise no (0).

Would you please look over these solved cases?
molecule: O=C(Nc1ccc(OC(F)(F)F)c(F)c1)NC1CCN(C(=O)C2CCCOC2)CC1 (configuration not stated)
category.label: yes (1)
//
molecule: O=C(Nc1ccc(OC(F)(F)F)cc1)NC1CCN(C(=O)C2CCCOC2)CC1 (racemic)
category.label: yes (1)
//
molecule: CC(C)C(=O)N1CCC(NC(=O)Nc2ccc(OC(F)(F)F)c(F)c2)CC1
category.label: no (0)
//
molecule: CC[C@H](C)C(=O)N1CCC(NC(=O)Nc2ccc(OC(F)(F)F)c(F)c2)CC1
category.label: yes (1)
//
molecule: O=C(Nc1ccc(OC(F)(F)F)cc1)NC1CCN(C(=O)C2CCOCC2)CC1
category.label: no (0)

# strict comparison: is reported half-life < 6 h? input = CCC(=O)N1CCC(NC(=O)Nc2ccc(OC(F)(F)F)c(F)c2)CC1
no (0)

# strict comparison: is reported half-life < 6 h? input = O=C(Nc1ccc(OC(F)(F)F)c(F)c1)NC1CCN(C(=O)C2CCOCC2)CC1
yes (1)

----------
Readings of logP at […], 100 µM for the listed molecules
Assay: Lipophilicity, logP of compound at 100 uM incubated for 90 mins by HPLC analysis
Assay type: physicochemical
Enter the number alone.

# query: logP at […], 100 µM of entry CC[C@H](C)C(=O)N1CCC(NC(=O)Nc2ccc(OC(F)(F)F)c(Br)c2)CC1
8.07

# query: logP at […], 100 µM of entry O=C(Nc1ccc(C(F)(F)F)c(F)c1)NC1CCN(C(=O)C2(C(F)(F)F)CC2)CC1
5.52

----------
Readings of AUC for the listed compounds
Assay: AUC in mouse at 0.3 mg/kg, po
Format: ADME, organism-based
Design: dose 0.3 mg/kg
Conditions: in vivo
Just the number in µM·h, nothing appended.

Examples from the recorded data:
compound: CC[C@H](C)C(=O)N1CCC(NC(=O)Nc2ccc(OC(F)(F)F)c(F)c2)CC1
AUC [µM·h]: 2.17
--
compound: CCC(=O)N1CCC(NC(=O)Nc2ccc(OC(F)(F)F)c(F)c2)CC1
AUC [µM·h]: 13
--
compound: O=C(Nc1ccc(OC(F)(F)F)c(F)c1)NC1CCN(C(=O)C2CCCOC2)CC1 (configuration not stated)
AUC [µM·h]: 0.785
--
compound: O=C(Nc1ccc(OC(F)(F)F)c(F)c1)NC1CCN(C(=O)C2CCOCC2)CC1
AUC [µM·h]: 5.56
--
compound: O=C(Nc1ccc(OC(F)(F)F)cc1)NC1CCN(C(=O)C2CCOCC2)CC1
AUC [µM·h]: 6.37
--
compound: CC(C)C(=O)N1CCC(NC(=O)Nc2ccc(OC(F)(F)F)c(F)c2)CC1
AUC [µM·h]: 10.9

# query: AUC of entry O=C(Nc1ccc(OC(F)(F)F)cc1)NC1CCN(C(=O)C2CCCOC2)CC1 (racemic)
0.483
